# protocol.text: Transient replicon assay, IC50 determination (firefly luciferase reporter), shuttle vector replicons with patient-derived NS3/4A
# Type: cell-based, HCV
# setup.conditions: Hepatitis C virus, Huh-7, 72 h, patient isolate 135641; luciferase read 72 hours after addition of inhibitor; read-out: IC50 VX-950
pIC50: −log10 of the molar value.
measurement.label: pIC50

[[record]]
chemical_smiles = "CCC[C@H](NC(=O)[C@@H]1[C@H]2CCC[C@H]2CN1C(=O)[C@@H](NC(=O)[C@@H](NC(=O)c1cnccn1)C1CCCCC1)C(C)(C)C)C(=O)C(=O)NC1CC1"
readout_value = 6.76


====

# protocol.text: Transient replicon assay, IC50 determination (firefly luciferase reporter), shuttle vector replicons with patient-derived NS3/4A
# Assay type: cell-based, HCV
# setup.conditions: Hepatitis C virus, Huh-7, 72 h, patient isolate 34026; luciferase read 72 hours after addition of inhibitor; read-out: IC50 VX-950
measurement.label: IC50 (µM)

[[record]]
chemical_smiles = "CCC[C@H](NC(=O)[C@@H]1[C@H]2CCC[C@H]2CN1C(=O)[C@@H](NC(=O)[C@@H](NC(=O)c1cnccn1)C1CCCCC1)C(C)(C)C)C(=O)C(=O)NC1CC1"
readout_value = 0.048


====

# protocol.text: Transient replicon assay, IC50 determination (firefly luciferase reporter), shuttle vector replicons with patient-derived NS3/4A
# Type: cell-based, HCV
# setup.conditions: Hepatitis C virus, Huh-7, 72 h, patient isolate 52620; luciferase read 72 hours after addition of inhibitor; read-out: IC50 VX-950
measurement.label: IC50 (nM)

[[record]]
chemical_smiles = "CCC[C@H](NC(=O)[C@@H]1[C@H]2CCC[C@H]2CN1C(=O)[C@@H](NC(=O)[C@@H](NC(=O)c1cnccn1)C1CCCCC1)C(C)(C)C)C(=O)C(=O)NC1CC1"
measurement_label = "IC50"
readout_value = 92

